Reference source: patent US20120058999A1

EXPERIMENTAL TARGET: human B1R (Homo sapiens)
Construct: expressed in transfected cells; host or cells: CHO K1 cells (stably transfected)
TEST SUMMARY: Functional investigation on the bradykinin 1 receptor, cell-based fluorescent calcium-mobilization assay (FLIPR), human
CONDITIONS USED: 10 μM test substance; CHO K1 cells transfected with human B1R gene; agonist Lys-Des-Arg9-bradykinin at EC80; % of maximum achievable inhibition
PARAMETER MEASURED: inhibition at 10 µM (%)

[
  {
    "COMPOUND": "CN1CCN([C@@H]2CCC[C@H](NC(=O)CCC3c4cccn4CCN3S(=O)(=O)c3cccc(C(F)(F)F)c3)C2)CC1 (relative stereo)",
    "UNIT SYMBOL": "%",
    "MEASURED": 29
  },
  {
    "COMPOUND": "COc1ccc2cc(S(=O)(=O)N3CCn4cccc4C3CC(=O)N(C)C3CC(N4CCN(C)CC4)C3)ccc2c1 (stereo not shown)",
    "UNIT SYMBOL": "%",
    "MEASURED": 99
  },
  {
    "COMPOUND": "CN1CCN(C2CC(N(C)C(=O)CCC3c4cccn4CCN3S(=O)(=O)c3cccc(C(F)(F)F)c3)C2)CC1 (stereo not shown)",
    "UNIT SYMBOL": "%",
    "MEASURED": 12
  }
]

P = CN1CCN([C@@H]2CCC[C@H](N(C)C(=O)CCC3c4cccn4CCN3S(=O)(=O)c3cccc(C(F)(F)F)c3)C2)CC1 (relative stereo)
Q = COc1cc(C)c(S(=O)(=O)N2CCn3cccc3C2COCC(=O)N(C)[C@H]2CCC[C@@H](N3CCN(C)CC3)C2)c(C)c1 (stereo partly shown) [SC-01]
Incoming: Which item exceeds the other in inhibition at 10 µM, P or Q ? Pick one and reply with its label.
Outgoing: Q
(Q: 100%, P: 43%)

A = CN(C(=O)CCC1c2cccn2CCN1S(=O)(=O)c1cccc(C(F)(F)F)c1)C1CCCC(N2CCOCC2)C1 (stereo not shown)
B = COc1cc(C)c(S(=O)(=O)N2CCn3cccc3C2CCCC(=O)N(C)C2CCCC(N3CCN(C(C)C)CC3)C2)c(C)c1 (stereo not shown)
Incoming: Record comparison, field inhibition at 10 µM: mark the lower of A and B . Pick one and reply with its label.
Outgoing: A

A = COc1cc(C)c(S(=O)(=O)N2CCn3cccc3C2COCC(=O)N(C)C2CC(N3CCN(C)CC3)C2)c(C)c1 (stereo not shown)
B = COc1cc(C)c(S(=O)(=O)N2CCn3cccc3C2CCCC(=O)N[C@H]2CCC[C@@H](N3CCN(C)CC3)C2)c(C)c1 (relative stereo)
Incoming: Record comparison, field inhibition at 10 µM: mark the lower of A and B . Pick one and reply with its label.
Outgoing: A
(A: 38%, B: 86%)

----------
EXPERIMENTAL TARGET: rat B1R (Rattus norvegicus)
Construct: expressed in transfected cells; host or cells: CHO K1 cells (stably transfected)
Sequence (P97583 whole entry): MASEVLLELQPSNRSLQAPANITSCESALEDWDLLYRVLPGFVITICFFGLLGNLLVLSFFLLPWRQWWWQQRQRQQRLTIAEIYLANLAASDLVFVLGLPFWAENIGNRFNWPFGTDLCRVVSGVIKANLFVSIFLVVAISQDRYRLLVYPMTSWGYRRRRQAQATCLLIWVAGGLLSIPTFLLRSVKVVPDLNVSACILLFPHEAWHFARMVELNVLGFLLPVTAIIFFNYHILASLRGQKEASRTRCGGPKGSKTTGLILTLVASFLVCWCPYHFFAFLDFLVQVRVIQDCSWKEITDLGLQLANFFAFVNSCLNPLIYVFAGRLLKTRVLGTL
TEST SUMMARY: Functional investigation on the bradykinin 1 receptor, cell-based fluorescent calcium-mobilization assay (FLIPR), rat
CONDITIONS USED: 10 μM test substance; CHO K1 cells transfected with rat B1R gene; agonist Des-Arg9-bradykinin at EC80; % of maximum achievable inhibition
PARAMETER MEASURED: inhibition at 10 µM (%)

[
  {
    "COMPOUND": "COc1cc(C)c(S(=O)(=O)N2CCn3cccc3C2CCCC(=O)N(C)C2CC(N3CCN(C)CC3)C2)c(C)c1 (centres unmarked) [CC-59]",
    "MEASURED": 97
  }
]

I = COc1ccc2cc(S(=O)(=O)N3CCn4cccc4C3CC(=O)N(C)[C@H]3CCC[C@@H](N4CCN(C)CC4)C3)ccc2c1 (relative stereo) [CC-04]
II = Cc1cc(S(=O)(=O)N2CCn3cccc3C2CCC(=O)N(C)[C@H]2CCC[C@@H](N3CCN(C)CC3)C2)c(C)cc1Cl (some centres unmarked) [SC-03]
Incoming: Which item exceeds the other in inhibition at 10 µM, I or II ? Pick one and reply with its label.
Outgoing: I
(I: 103%, II: 61%)

----------
EXPERIMENTAL TARGET: human B1R (Homo sapiens, UniProt P46663)
Construct: expressed in transfected cells; host or cells: CHO K1 cells (stably transfected)
Sequence (P46663 whole entry): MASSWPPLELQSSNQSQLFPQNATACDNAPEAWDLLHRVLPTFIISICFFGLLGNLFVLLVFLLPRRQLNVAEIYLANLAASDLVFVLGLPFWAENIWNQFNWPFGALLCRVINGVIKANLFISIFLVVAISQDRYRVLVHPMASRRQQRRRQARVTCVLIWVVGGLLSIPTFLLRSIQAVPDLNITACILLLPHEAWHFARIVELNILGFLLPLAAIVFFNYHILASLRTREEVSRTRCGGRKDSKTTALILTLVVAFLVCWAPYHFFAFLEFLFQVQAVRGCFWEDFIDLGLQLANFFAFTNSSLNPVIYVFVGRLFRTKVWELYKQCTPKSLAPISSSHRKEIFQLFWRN
TEST SUMMARY: Functional investigation on the bradykinin 1 receptor, cell-based fluorescent calcium-mobilization assay (FLIPR), human
CONDITIONS USED: 10 μM test substance; CHO K1 cells transfected with human B1R gene; agonist Lys-Des-Arg9-bradykinin at EC80; % of maximum achievable inhibition
PARAMETER MEASURED: inhibition at 10 µM (%)

[
  {
    "COMPOUND": "Cc1cc(S(=O)(=O)N2CCn3cccc3C2CCC(=O)N(C)[C@H]2CCC[C@@H](N3CCN(C)CC3)C2)c(C)cc1Cl (stereo partly shown)",
    "UNIT SYMBOL": "%",
    "MEASURED": 95
  },
  {
    "COMPOUND": "COc1ccc2cc(S(=O)(=O)N3CCn4cccc4C3CC(=O)N(C)C3CCCC(N4CCOCC4)C3)ccc2c1 (stereo not shown)",
    "UNIT SYMBOL": "%",
    "MEASURED": 99
  },
  {
    "COMPOUND": "COc1cc(C)c(S(=O)(=O)N2CCn3cccc3C2COCC(=O)N(C)C2CCCC(N3CCN(C(C)C)CC3)C2)c(C)c1 (stereo not shown)",
    "UNIT SYMBOL": "%",
    "MEASURED": 99
  },
  {
    "COMPOUND": "COc1cc(C)c(S(=O)(=O)N2CCn3cccc3C2COCC(=O)N(C)C2CCC(N3CCN(C)CC3)CC2)c(C)c1 (stereo not shown)",
    "UNIT SYMBOL": "%",
    "MEASURED": 101
  },
  {
    "COMPOUND": "COc1ccc2cc(S(=O)(=O)N3CCn4cccc4C3CC(=O)N(C)C3CCCC(N4CCN(C(C)C)CC4)C3)ccc2c1 (stereo not shown)",
    "UNIT SYMBOL": "%",
    "MEASURED": 100
  },
  {
    "COMPOUND": "COc1cc(C)c(S(=O)(=O)N2CCn3cccc3C2COCC(=O)N[C@H]2CCC[C@@H](N3CCN(C)CC3)C2)c(C)c1 (relative stereo)",
    "UNIT SYMBOL": "%",
    "MEASURED": 96
  },
  {
    "COMPOUND": "COc1cc(C)c(S(=O)(=O)N2CCn3cccc3C2COCC(=O)N(C)[C@H]2CCC[C@@H](N3CCN(C)CC3)C2)c(C)c1 (relative stereo) [CC-01]",
    "UNIT SYMBOL": "%",
    "MEASURED": 100
  },
  {
    "COMPOUND": "Cc1cccc(Cl)c1S(=O)(=O)N1CCn2cccc2C1COCC(=O)N(C)[C@H]1CCC[C@@H](N2CCN(C)CC2)C1 (stereo partly shown)",
    "UNIT SYMBOL": "%",
    "MEASURED": 100
  },
  {
    "COMPOUND": "COc1cc(C)c(S(=O)(=O)N2CCn3cccc3C2CCCC(=O)N(C)C2CCCC(N3CCOCC3)C2)c(C)c1 (stereo not shown)",
    "UNIT SYMBOL": "%",
    "MEASURED": 88
  },
  {
    "COMPOUND": "COc1cc(C)c(S(=O)(=O)N2CCn3cccc3C2COCC(=O)N(C)C2CCCC(N3CCOCC3)C2)c(C)c1 (stereo not shown)",
    "UNIT SYMBOL": "%",
    "MEASURED": 98
  },
  {
    "COMPOUND": "COc1cc(C)c(S(=O)(=O)N2CCn3c(C)ccc3C2COCC(=O)N(C)[C@H]2CCC[C@@H](N3CCN(C)CC3)C2)c(C)c1 (stereo partly shown)",
    "UNIT SYMBOL": "%",
    "MEASURED": 97
  },
  {
    "COMPOUND": "CC(C)N1CCN(C2CCCC(N(C)C(=O)CCC3c4cccn4CCN3S(=O)(=O)c3cccc(C(F)(F)F)c3)C2)CC1 (stereo not shown)",
    "UNIT SYMBOL": "%",
    "MEASURED": 87
  },
  {
    "COMPOUND": "COc1ccc2cc(S(=O)(=O)N3CCn4cccc4C3CC(=O)N[C@H]3CCC[C@@H](N4CCN(C)CC4)C3)ccc2c1 (relative stereo)",
    "UNIT SYMBOL": "%",
    "MEASURED": 100
  },
  {
    "COMPOUND": "COc1ccc2cc(S(=O)(=O)N3CCn4cccc4C3CC(=O)N(C)[C@H]3CCC[C@@H](N4CCN(C)CC4)C3)ccc2c1 (relative stereo)",
    "UNIT SYMBOL": "%",
    "MEASURED": 100
  },
  {
    "COMPOUND": "COc1cc(C)c(S(=O)(=O)N2CCn3cccc3C2CCCC(=O)N(C)C2CC(N3CCN(C)CC3)C2)c(C)c1 (stereo not shown)",
    "UNIT SYMBOL": "%",
    "MEASURED": 80
  },
  {
    "COMPOUND": "COc1cc(C)c(S(=O)(=O)N2CCn3cccc3C2CCCC(=O)N(C)[C@H]2CCC[C@@H](N3CCN(C)CC3)C2)c(C)c1 (relative stereo)",
    "UNIT SYMBOL": "%",
    "MEASURED": 87
  }
]
